growth for assorted molecules
Test system: A549/ATCC NSCLC
protocol_notes: NCI-60 one-dose screen, 48 h (100 = growth as untreated, 0 = no growth, -100 = all killed)
conditions: 10 µM
Compounds without any hit were thinned out: in the full panel of roughly 83,000, 20% have a hit.
Dear colleague, please return just the value in %, with no unit written.

Incoming: Supply reported growth belonging to this molecule: Cc1[nH]c(-c2nc3ccccc3[nH]2)c(C)c1C(=O)NC(C)C1CCCCC1 (configuration not stated)
Outgoing: 90.5

---
Incoming: Give reported growth value for CCc1ccccc1-n1c(N)c(C#N)c(-c2ccc(OC)c(OC)c2)c(C#N)c1=O
Outgoing: 106

Incoming: Tell me its growth given O=C(O)c1sccc1O as the entry.
Outgoing: 82.5

Incoming: In one line, give reported growth of the entry CNC(=O)c1cc(Oc2ccc(CC(=O)Nc3cc(C(C)(C)C)nn3C)cc2)ccn1 .
Outgoing: 67.2

Incoming: Return reported growth. Input molecule: CC1(C)OB(c2ccc(Cn3cc(F)c(=O)[nH]c3=O)cc2)OC1(C)C
Outgoing: 98.9

Incoming: Given CC#C[C@]1(O)CC[C@H]2[C@@H]3CCC4=CC(=O)CCC4=C3[C@@H](c3ccc4c(c3)OCO4)C[C@@]21C , respond with its growth.
Outgoing: 66.7

Incoming: Tell me measured growth for CCCCCCCCCCCCCCCc1ccc(Cl)c(O)c1Cl (tested in a mixture with another compound) please.
Outgoing: 71.9

----------
Tested on: COLO 205 colon
protocol_notes: NCI-60 one-dose screen, 48 h (100 = growth as untreated, 0 = no growth, -100 = all killed)
conditions: 10 µM unless noted
Compounds without any hit were thinned out: in the full panel of roughly 83,000, 20% have a hit.
The molecules listed here are annotated with their growth.
The figure you give is taken to be in %; do not add the unit.

Illustrative cases are given below, each with its answer.
Incoming: Please indicate recorded growth of Cc1ccc(-c2noc(C)n2)cc1 measured with COLO 205 colon.
Outgoing: 113

Incoming: System COLO 205 colon. Read-out growth. Item S=C1SCN(Cc2ccccc2)CN1Cc1ccccc1 . Report value.
Outgoing: 78.1

Incoming: Given N=C1N=C(N)CS1 , report its growth on COLO 205 colon.
Outgoing: 113

Incoming: Give the observed growth of CNC(=O)c1cccnc1 for COLO 205 colon.
Outgoing: 121

Next:
Incoming: Would you please give the reported growth of O=C(Cc1cccc2ccccc12)N/N=C/c1ccc2c(c1)CCC2 with COLO 205 colon?
Outgoing: 82

Incoming: State, for COLO 205 colon, measured growth of the molecule listed here: CC(=O)C(/C=N/C(N)=O)=C(/C)O
Outgoing: 120

Incoming: Write down measured growth (COLO 205 colon) for this molecule. CC1=C(/C=C/C(C)=C/C=C/C(C)=C/C(=O)Nc2ccc(O)cc2)C(C)(C)CCC1
Outgoing: 38.6

Incoming: Look up and report growth, with COLO 205 colon as system, for CC(O)(CC(=O)CC(=O)c1ccccc1)c1ccccc1 (stereo not drawn)
Outgoing: 127

Incoming: Look up COLO 205 colon data: growth of Fc1ccccc1Nc1n[nH]c(=S)s1 , then report it.
Outgoing: 108

Incoming: Provide growth, system COLO 205 colon, entry Cc1n[nH]c(=O)n(/N=C\c2c[nH]c3ccccc23)c1=O
Outgoing: 104

Incoming: Specify growth for N#CCCOc1ccccc1 , system COLO 205 colon.
Outgoing: 106

Incoming: Give reported growth for Cc1ccc(-c2noc(CC(=O)c3ccc([N+](=O)[O-])cc3)n2)cc1 (COLO 205 colon)
Outgoing: 109

Incoming: Identify measured growth obtained with COLO 205 colon for COc1cc(C(=O)N/N=C/c2ccc(N(C)C)cc2)cc(OC)c1OC .
Outgoing: -25.7
